# method_summary: Tissue distribution study in minipigs after intravenous administration
# Type: in vivo, Yucatan minipigs
# condition: Yucatan, minipig, kidney / plasma, iv, 12.5 mg/kg, 2 h after intravenous administration of 12.5 mg/kg, read-out: T/P Ratio Kidney/Plasma
assay_readout: Kp at 2 h

Exercise: Which Kp at 2 h value belongs to CC(=O)N[C@H]1[C@H]([C@H](O)[C@H](O)CO)O[C@@](O[C@H]2[C@@H](O)[C@@H](CO)O[C@@H](O[C@H]3[C@H](O)[C@@H](O)[C@H](O)O[C@@H]3CO)[C@@H]2O)(C(=O)O)C[C@@H]1O ?
Solution: 1 to 1.3

The record that follows has no Kp at 2 h shown yet.
Exercise: # query: Kp at 2 h of entry CC(=O)NC1C(O)CC(OCC2OC(OC3C(CO)OC(O)C(O)C3O)C(O)C(O)C2O)(C(=O)O)OC1C(O)C(O)CO (centres unmarked)
Solution: 1 to 1.3
